Reference source: ChEMBL document CHEMBL1152102

Reported IC50, Human immunodeficiency virus type 1 protease (Human immunodeficiency virus 1).
Quantity kind: IC50 (nM)

INSERT INTO measurements (compound, quantity_kind, unit_tag, reported) VALUES
  ('CC(C)c1ccccc1SC1=C(O)OC(CCCC(=O)N(C)c2ccccc2)(c2ccccc2)CC1=O (centres undefined)', 'IC50', 'nM', 624),
  ('CC(C)c1ccccc1SC1=C(O)OC(CCCC(=O)Nc2ccccc2)(c2ccccc2)CC1=O (centres undefined)', 'IC50', 'nM', 429),
  ('CC(C)c1ccccc1SC1=C(O)OC(CCCC(=O)NCc2ccccc2)(c2ccccc2)CC1=O (centres undefined)', 'IC50', 'nM', 81),
  ('CC(C)c1ccccc1SC1=C(O)OC(CCCCC(=O)Nc2ccccc2)(c2ccccc2)CC1=O (centres undefined)', 'IC50', 'nM', 91),
  ('CC(C)c1ccccc1SC1=C(O)OC(CCCC(=O)N2CCSCC2)(c2ccccc2)CC1=O (centres undefined)', 'IC50', 'nM', 285),
  ('CC(C)c1ccccc1SC1=C(O)OC(CCCCC(=O)NCc2ccccc2)(c2ccccc2)CC1=O (centres undefined)', 'IC50', 'nM', 26),
  ('CC(C)c1ccccc1SC1=C(O)OC(CCCCC(=O)N2CCOCC2)(c2ccccc2)CC1=O (centres undefined)', 'IC50', 'nM', 195);

[a] CC(C)c1ccccc1SC1=C(O)OC(CCCCC(=O)NCCc2ccccc2)(c2ccccc2)CC1=O (centres undefined)
[b] CC(C)c1ccccc1SC1=C(O)OC(CCCC(=O)N2CCN(C(=O)OC(C)(C)C)CC2)(c2ccccc2)CC1=O (centres undefined)
Could you tell me which of a and b has the lower IC50 reading? Output the label that corresponds to your choice.
a
